Reference for the values: the supplement of paper PMC10567573

Listed here: items and their measured protein stability index.
B1: FBF1 (parent)
chain: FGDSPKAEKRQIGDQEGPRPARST

- Variants of: B1
- assay-details: protein stability index of a GFP-peptide fusion (GPS, HEK-293T) (PSI 1-6); higher = more stable;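 also: lentivirally expressed fusions sorted by FACS into six bins by GFP to DsRed ratio, PSI derived from sequencing read proportions per bin multiplied by bin number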
- setup-conditions: c terminus: a fixed tail appended
measurement-kind: protein stability index

>>> df
    mutation_list  result
 0            S4C    5.01
 1           R22P    5.64
 2           E16W    3.48
 3           D14L    4.68
 4            D3K    4.17
 5            S4G    4.96
 6           S23H    5.53
 7            K6Q    3.71
 8           R10D    5.29
 9            K9I    5.23
10           P18E    5.54
